All figures here come from patent US20150266962A1.

Target or system: T1, recombinant human IL-13 receptor alpha 2 (hIL-13-Rα2) (human, UniProt Q14627 27-343)
T1 construct: Recombinant soluble antigen coated on ELISA plates or used in Biacore; also called rec hIL-13Rα2; rhIL-13Rα2
T1 sequence (looked up): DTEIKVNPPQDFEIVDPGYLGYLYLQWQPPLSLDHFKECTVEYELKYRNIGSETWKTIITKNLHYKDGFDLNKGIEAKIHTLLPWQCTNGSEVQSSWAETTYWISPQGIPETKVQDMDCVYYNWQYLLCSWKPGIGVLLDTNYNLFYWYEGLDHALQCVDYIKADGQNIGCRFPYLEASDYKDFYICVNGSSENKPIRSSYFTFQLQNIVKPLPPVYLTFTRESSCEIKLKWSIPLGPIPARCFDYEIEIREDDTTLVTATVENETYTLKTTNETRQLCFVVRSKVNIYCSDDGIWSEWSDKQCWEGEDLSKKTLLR
Assay method text: competition ELISA on coated recombinant hIL-13-Rα2, competitor biotin-ch08
Each entry below carries its reported pIC50.
Please report pIC50 as the negative decimal logarithm of the molar concentration, giving only the number.

Recorded pIC50, per entry:
Binder	pIC50
chimeric antibody ch08 (antibody, human IgG1, V domains shown, also called ch08Hc + Lc; chimeric antibody 08) VH: EVQLVESGGDLVRPGGSLQLSCAASGFTFSRNGMSWVRQTPDRRLEWVATVSSGGSYIYYADSVKGRFTISRDNARNTLYLQMSSLKSEDTAMYYCARQGTTALATRFFDVWGAGTTVTVSS VL: DIVMTQSHKFISTSVGDRVSITCKASQDVGTAVAWYQQIPGQSPKLLIYSASYRSTGIPDRFTGSGSGTDFSFIISSVQAEDLALYYCQHHYSAPWTFGGGTTLDIK	8.70
humanized antibody hu08 v1.1 HC/v1.1 LC (antibody, IgG1, V domains shown, hIgG1 constant region and hIgKappa constant region; also called hu08 v1.1/1.1; hu08v1.1/1.1) VH: EVQLVESGGGLVQPGGSLRLSCAASGFTFSRNGMSWVRQTPDKRLEWVATVSSGGSYIYYADSVKGRFTISRDNAKNSLYLQMSSLRAEDTAVYYCARQGTTALATRFFDVWGQGTLVTVSS VL: DIQMTQSPSSLSASVGDRVTITCKASQDVGTAVAWYQQIPGKAPKLLIYSASYRSTGVPDRFSGSGSGTDFSFIISSLQPEDFATYYCQHHYSAPWTFGGGTKVEIK	8.50
humanized antibody hu08 v1.0 HC/v1.1 LC (antibody, IgG1, V domains shown, hIgG1 constant region and hIgKappa constant region; also called hu08 v1.0/1.1) VH: EVQLVESGGGLVQPGGSLRLSCAASGFTFSRNGMSWVRQAPGKGLEWVATVSSGGSYIYYADSVKGRFTISRDNAKNSLYLQMNSLRAEDTAVYYCARQGTTALATRFFDVWGQGTLVTVSS VL: DIQMTQSPSSLSASVGDRVTITCKASQDVGTAVAWYQQIPGKAPKLLIYSASYRSTGVPDRFSGSGSGTDFSFIISSLQPEDFATYYCQHHYSAPWTFGGGTKVEIK	8.67

For the next question, use this binder.
Data request: Give the measured pIC50 of humanized antibody hu08 v1.1 HC/v1.0 LC (antibody, IgG1, V domains shown, hIgG1 constant region and hIgKappa constant region; also called hu08 v1.1/1.0) VH: EVQLVESGGGLVQPGGSLRLSCAASGFTFSRNGMSWVRQTPDKRLEWVATVSSGGSYIYYADSVKGRFTISRDNAKNSLYLQMSSLRAEDTAVYYCARQGTTALATRFFDVWGQGTLVTVSS VL: DIQMTQSPSSLSASVGDRVTITCKASQDVGTAVAWYQQKPGKAPKLLIYSASYRSTGVPSRFSGSGSGTDFTLTISSLQPEDFATYYCQHHYSAPWTFGGGTKVEIK .
Data returned: 8.59
